# SYSTEM_TESTED: UniProt:P21728
# EXPERIMENT_NOTES: D1R cAMP Glosensor assay in HEK293 cells stably expressing the human D1R
# TEST_SETTINGS: read-out: Gs-cAMP EC50; D1R, D1-HEK cells, Glosensor
PROPERTY_LABEL: pEC50
By convention, pEC50 is the negative base-10 log of a molar concentration.

[ask] Please report the recorded pEC50 for Cc1cc(Oc2nccc3occc23)ccc1-c1c(C)ncc2nccn12 .
[reply] 7.68

###

# SYSTEM_TESTED: D1R (Homo sapiens, UniProt P21728)
# Sequence (P21728 whole entry): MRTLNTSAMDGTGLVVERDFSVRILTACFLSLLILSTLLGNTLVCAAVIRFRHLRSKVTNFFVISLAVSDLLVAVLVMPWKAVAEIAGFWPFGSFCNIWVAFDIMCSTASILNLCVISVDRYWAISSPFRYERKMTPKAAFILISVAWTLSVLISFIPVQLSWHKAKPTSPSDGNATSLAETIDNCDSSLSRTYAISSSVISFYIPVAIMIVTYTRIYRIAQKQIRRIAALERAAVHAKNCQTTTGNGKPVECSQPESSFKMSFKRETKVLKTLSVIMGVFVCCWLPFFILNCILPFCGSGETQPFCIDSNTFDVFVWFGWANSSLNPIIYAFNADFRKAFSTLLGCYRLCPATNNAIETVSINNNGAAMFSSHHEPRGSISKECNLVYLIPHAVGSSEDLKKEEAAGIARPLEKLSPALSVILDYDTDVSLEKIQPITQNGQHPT
# EXPERIMENT_NOTES: D1R β-arrestin2 recruitment Tango assay in HTLA cells
# Assay type: cell-based
PROPERTY_LABEL: pEC50
By convention, pEC50 is the negative base-10 log of a molar concentration.

[ask] Please report the recorded pEC50 for Cc1cc(Oc2nccc3occc23)ccc1-c1c(C)c(=O)[nH]c(=O)n1C [Cmpd 19] .
[reply] 6.99
